ASSAY_COMMENT: In vivo PK, p.o./i.p. dosing
EXPERIMENTAL_PARAMETERS: male, Sprague-Dawley, rat, plasma, po, 3 mg/kg
// reported Cmax at 1 h per item

CHEMICAL_STRING	UNIT_ABBREV	Cmax at 1 h
O=C(c1ccc(S(=O)(=O)Nc2ccccc2)cc1)N(Cc1ccc(NCCO)cn1)CC1CC1	ng/mL	50.8
COCCNc1ccc(CN(CC2CC2)C(=O)c2ccc(S(=O)(=O)Nc3ccccc3)cc2)nc1	ng/mL	16.8
CCCCN(Cc1ccc2[nH]ccc2c1)C(=O)c1ccc(S(=O)(=O)Nc2ccccc2)cc1	ng/mL	4.6

---

ASSAY_COMMENT: Caco-2 permeability and efflux
EXPERIMENTAL_PARAMETERS: human, Caco-2

CHEMICAL_STRING	Papp (×10⁻⁶ cm/s)
COCCNc1ccc(CN(CC2CC2)C(=O)c2ccc(S(=O)(=O)Nc3ccccc3)cc2)nc1	8.3
Cc1cc(CN(CC2CC2)C(=O)c2ccc(S(=O)(=O)Nc3ccccc3)cc2)ncc1NCCO	0.5
O=C(c1ccc(S(=O)(=O)Nc2ccccc2)cc1)N(Cc1ccc(OCCO)cc1)CC1CC1	15
CN(CCO)c1ccc(CN(CC2CC2)C(=O)c2ccc(S(=O)(=O)Nc3ccccc3)cc2)nc1	0.5
O=C(c1ccc(S(=O)(=O)Nc2ccccc2)cc1)N(Cc1ccc(F)cn1)CC1CC1	21.1
